subject-of-test: human FXR (NR1H4) (Homo sapiens (Human), UniProt Q96RI1)
Sequence (Q96RI1 whole entry): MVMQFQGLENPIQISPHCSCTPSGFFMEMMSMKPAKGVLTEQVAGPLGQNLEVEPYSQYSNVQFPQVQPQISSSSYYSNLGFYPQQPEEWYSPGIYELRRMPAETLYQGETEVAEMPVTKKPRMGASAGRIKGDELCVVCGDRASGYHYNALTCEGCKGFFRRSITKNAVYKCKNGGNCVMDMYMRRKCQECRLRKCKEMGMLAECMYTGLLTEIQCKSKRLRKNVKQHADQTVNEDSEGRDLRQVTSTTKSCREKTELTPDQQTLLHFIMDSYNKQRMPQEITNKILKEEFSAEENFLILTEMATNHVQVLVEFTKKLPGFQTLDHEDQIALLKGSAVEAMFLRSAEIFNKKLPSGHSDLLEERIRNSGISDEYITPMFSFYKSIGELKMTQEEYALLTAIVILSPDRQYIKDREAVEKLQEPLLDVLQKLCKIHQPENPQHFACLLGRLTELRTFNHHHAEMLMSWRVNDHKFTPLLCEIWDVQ
experiment-description: Human FXR (NR1H4) Assay (luciferase reporter, Indigo Bioscience kit); as to Efficacy (%): efficacy normalized to CDCA set as 100%
Type: cell-based
test-parameters: read-out: Efficacy (%)
Reported Emax values are given for each entry in this list.

[
  {
    "compound": "CC[C@H]1[C@@H](O)[C@@H]2[C@H](CC[C@]3(C)[C@@H]([C@H](C)CCCc4cccc(C(=O)O)c4)CC[C@@H]23)[C@@]2(C)CC[C@@H](O)C[C@@H]12 [Example 23]",
    "Emax [%]": 292
  },
  {
    "compound": "CC[C@H]1[C@@H](O)[C@@H]2[C@H](CC[C@]3(C)[C@@H]([C@H](C)C/C=C/c4ccc(C(=O)O)c(O)c4)CC[C@@H]23)[C@@]2(C)CC[C@@H](O)C[C@@H]12 [Example 13]",
    "Emax [%]": 166
  },
  {
    "compound": "CC[C@H]1[C@@H](O)[C@@H]2[C@H](CC[C@]3(C)[C@@H]([C@H](C)C/C=C/c4cnccc4C(=O)OC)CC[C@@H]23)[C@@]2(C)CC[C@@H](O)C[C@@H]12 [Example 27]",
    "Emax [%]": 296
  },
  {
    "compound": "CC[C@H]1[C@@H](O)[C@@H]2[C@H](CC[C@]3(C)[C@@H]([C@H](C)CCCn4nnnc4CC(=O)O)CC[C@@H]23)[C@@]2(C)CC[C@@H](O)C[C@@H]12 [Example 9]",
    "Emax [%]": 172
  },
  {
    "compound": "CC[C@H]1[C@@H](O)[C@@H]2[C@H](CC[C@]3(C)[C@@H]([C@H](C)C/C=C/c4ccc(-c5nnn[nH]5)cc4)CC[C@@H]23)[C@@]2(C)CC[C@@H](O)C[C@@H]12 [Example 24]",
    "Emax [%]": 234
  },
  {
    "compound": "CC[C@H]1[C@@H](O)[C@@H]2[C@H](CC[C@]3(C)[C@@H]([C@H](C)C/C=C/c4cnccc4C(=O)O)CC[C@@H]23)[C@@]2(C)CC[C@@H](O)C[C@@H]12 [Example 28]",
    "Emax [%]": 300
  },
  {
    "compound": "CC[C@H]1[C@@H](O)[C@@H]2[C@H](CC[C@]3(C)[C@@H]([C@H](C)CCCc4ccccc4C(=O)O)CC[C@@H]23)[C@@]2(C)CC[C@@H](O)C[C@@H]12 [Example 3]",
    "Emax [%]": 352
  },
  {
    "compound": "CC[C@H]1[C@@H](O)[C@@H]2[C@H](CC[C@]3(C)[C@@H]([C@H](C)CC4CC4c4ccc(C(=O)O)cc4)CC[C@@H]23)[C@@]2(C)CC[C@@H](O)C[C@@H]12 (stereo partly shown) [Example 34]",
    "Emax [%]": 195
  },
  {
    "compound": "CC[C@H]1[C@@H](O)[C@@H]2[C@H](CC[C@]3(C)[C@@H]([C@H](C)C/C=C/c4ccc(C(=O)O)cc4)CC[C@@H]23)[C@@]2(C)CC[C@@H](O)C[C@@H]12 [Example 19]",
    "Emax [%]": 244
  },
  {
    "compound": "CC[C@H]1[C@@H](O)[C@@H]2[C@H](CC[C@]3(C)[C@@H]([C@H](C)CCCc4ccc(C(=O)O)cc4)CC[C@@H]23)[C@@]2(C)CC[C@@H](O)C[C@@H]12 [Example 20]",
    "Emax [%]": 266
  }
]

----------
subject-of-test: human FXR (NR1H4) (Homo sapiens (Human))
experiment-description: Human FXR (NR1H4) Assay (luciferase reporter, Indigo Bioscience kit)
Assay type: cell-based
test-parameters: read-out: Efficacy (%)
Listed here: items and their measured Emax.
outcome-measure: Emax (%)

[
  {
    "record-smiles": "CC[C@H]1[C@@H](O)[C@@H]2[C@H](CC[C@]3(C)[C@@H]([C@H](C)C/C=C/c4ccccc4C(=O)O)CC[C@@H]23)[C@@]2(C)CC[C@@H](O)C[C@@H]12",
    "result-unit": "%",
    "recorded-result": 313
  },
  {
    "record-smiles": "CC[C@H]1[C@@H](O)[C@@H]2[C@H](CC[C@]3(C)[C@@H]([C@H](C)CCCn4nnc(CC(=O)O)n4)CC[C@@H]23)[C@@]2(C)CC[C@@H](O)C[C@@H]12",
    "result-unit": "%",
    "recorded-result": 29
  },
  {
    "record-smiles": "CC[C@H]1[C@@H](O)[C@@H]2[C@H](CC[C@]3(C)[C@@H]([C@H](C)CCCc4ccc(F)cc4C(=O)O)CC[C@@H]23)[C@@]2(C)CC[C@@H](O)C[C@@H]12",
    "result-unit": "%",
    "recorded-result": 256
  }
]

----------
Entries and their measured Emax follow.
subject-of-test: human FXR (NR1H4) (Homo sapiens (Human))
experiment-description: Human FXR (NR1H4) Assay (luciferase reporter, Indigo Bioscience kit)
Format: cell-based
test-parameters: read-out: Efficacy (%)

[
  {
    "compound": "CC[C@H]1[C@@H](O)[C@@H]2[C@H](CC[C@]3(C)[C@@H]([C@H](C)C/C=C/c4ccc(C(=O)OC)cc4)CC[C@@H]23)[C@@]2(C)CC[C@@H](O)C[C@@H]12",
    "subject-of-test": "human FXR (NR1H4) (Homo sapiens (Human))",
    "result-unit": "%",
    "Emax": 113
  },
  {
    "compound": "CC[C@H]1[C@@H](O)[C@@H]2[C@H](CC[C@]3(C)[C@@H]([C@H](C)C/C=C/c4ccccc4-c4nnn[nH]4)CC[C@@H]23)[C@@]2(C)CC[C@@H](O)C[C@@H]12",
    "subject-of-test": "human FXR (NR1H4) (Homo sapiens (Human))",
    "result-unit": "%",
    "Emax": 332
  },
  {
    "compound": "CC[C@H]1[C@@H](O)[C@@H]2[C@H](CC[C@]3(C)[C@@H]([C@H](C)Cc4nc5c(C(=O)OC)cccc5o4)CC[C@@H]23)[C@@]2(C)CC[C@@H](O)C[C@@H]12",
    "subject-of-test": "human FXR (NR1H4) (Homo sapiens (Human))",
    "result-unit": "%",
    "Emax": 131
  },
  {
    "compound": "CC[C@H]1[C@@H](O)[C@@H]2[C@H](CC[C@]3(C)[C@@H]([C@H](C)C/C=C/c4cccc(C(=O)OC)c4)CC[C@@H]23)[C@@]2(C)CC[C@@H](O)C[C@@H]12",
    "subject-of-test": "human FXR (NR1H4) (Homo sapiens (Human))",
    "result-unit": "%",
    "Emax": 92
  },
  {
    "compound": "CC[C@H]1[C@@H](O)[C@@H]2[C@H](CC[C@]3(C)[C@@H]([C@H](C)CC4CC4c4cccc(C(=O)O)c4)CC[C@@H]23)[C@@]2(C)CC[C@@H](O)C[C@@H]12 (some centres unmarked)",
    "subject-of-test": "human FXR (NR1H4) (Homo sapiens (Human))",
    "result-unit": "%",
    "Emax": 229
  }
]

----------
subject-of-test: human FXR (NR1H4) (Homo sapiens (Human), UniProt Q96RI1)
experiment-description: Human FXR (NR1H4) Assay (luciferase reporter, Indigo Bioscience kit)
test-parameters: FXR agonistic potency range; CHO reporter cells expressing human NR1H4, 22 hours incubation
pEC50: −log10 of the molar value.
This listing pairs molecules with measured pEC50.
outcome-measure: pEC50

[
  {
    "molecule": "CC[C@H]1[C@@H](O)[C@@H]2[C@H](CC[C@]3(C)[C@@H]([C@H](C)CCCn4nnnc4CC(=O)O)CC[C@@H]23)[C@@]2(C)CC[C@@H](O)C[C@@H]12 [Example 9]",
    "recorded-result": "5.00 to 6.00"
  },
  {
    "molecule": "CC[C@H]1[C@@H](O)[C@@H]2[C@H](CC[C@]3(C)[C@@H]([C@H](C)C/C=C/c4ccccc4C(=O)OC)CC[C@@H]23)[C@@]2(C)CC[C@@H](O)C[C@@H]12 [Example 1]",
    "recorded-result": "5.00 to 6.00"
  },
  {
    "molecule": "CC[C@H]1[C@@H](O)[C@@H]2[C@H](CC[C@]3(C)[C@@H]([C@H](C)Cc4nc5c(C(=O)OC)cccc5o4)CC[C@@H]23)[C@@]2(C)CC[C@@H](O)C[C@@H]12 [Example 6]",
    "recorded-result": "5.00 to 6.00"
  },
  {
    "molecule": "CC[C@H]1[C@@H](O)[C@@H]2[C@H](CC[C@]3(C)[C@@H]([C@H](C)Cc4nc5cccc(C(=O)O)c5[nH]4)CC[C@@H]23)[C@@]2(C)CC[C@@H](O)C[C@@H]12 [Example 32]",
    "recorded-result": "5.00 to 6.00"
  },
  {
    "molecule": "CC[C@H]1[C@@H](O)[C@@H]2[C@H](CC[C@]3(C)[C@@H]([C@H](C)CCCn4nnc(CC(=O)O)n4)CC[C@@H]23)[C@@]2(C)CC[C@@H](O)C[C@@H]12 [Example 8]",
    "recorded-result": "5.00 to 6.00"
  },
  {
    "molecule": "CC[C@H]1[C@@H](O)[C@@H]2[C@H](CC[C@]3(C)[C@@H]([C@H](C)CCCc4ccc(C(=O)O)cc4)CC[C@@H]23)[C@@]2(C)CC[C@@H](O)C[C@@H]12 [Example 20]",
    "recorded-result": "5.00 to 6.00"
  },
  {
    "molecule": "CC[C@H]1[C@@H](O)[C@@H]2[C@H](CC[C@]3(C)[C@@H]([C@H](C)CCCc4ccccc4C(=O)O)CC[C@@H]23)[C@@]2(C)CC[C@@H](O)C[C@@H]12 [Example 3]",
    "recorded-result": "6.00 to 7.00"
  }
]

Data provenance: patent US10323060B2
